Tested on: Heliothis virescens
test summary: B.3 Tobacco budworm, insect diet and eggs in microtiter plates
Assay type: in vivo
measurement context: 120 h, egg and larval mortality, 5 days, read-out: mortality in comparison with untreated controls
endpoint label: mortality at 2500 ppm

Known mortality at 2500 ppm results, listed for orientation:
# input Returns the measured mortality at 2500 ppm for the input compound. Input: CC(c1nccnc1-n1ncn(CC(F)(F)F)c1=O)N(CC1CC1)C(=O)c1cc(C(F)(F)F)cc(C(F)(F)F)c1 (stereo not shown)
# output ≥ 75%

# input Input CC(NC(=O)c1cc(Br)cc(C(F)(F)F)c1)c1nccnc1-n1ncn(CC(F)(F)F)c1=O (stereo not shown)
# output ≥ 75%

# input Lookup CC(NC(=O)c1cc(C(F)(F)F)cc(C(F)(F)F)c1)c1nccnc1-n1ncn(C)c1=O (stereo not shown)
# output ≥ 75%

---
# input Field request: mortality at 2500 ppm | item: CC(NC(=O)c1cc(Br)cc(C(F)(F)F)c1)c1nccnc1-n1ncn(C)c1=O (stereo not shown)
# output ≥ 75%
